Provide the recorded cytotoxicity at 96 h, 1 µM for the entries that follow.
# assay info: Cytotoxicity against human MRC5 cells assessed as reduction of cell viability at 1 uM after 96 hrs by alamar blue assay
# Type: cell-based
# experimental parameters: read-out: INH
Express your answer in %, writing the number without its unit.

**Q:** So what's the measured cytotoxicity at 96 h, 1 µM for this one? O=C(Cc1c[nH]c2ccccc12)Nc1nc2ccccc2s1
**A:** 20

**Q:** So what's the measured cytotoxicity at 96 h, 1 µM for this one? CC1=C(/C=C/C(C)=C/C=C/C(C)=C\C(=O)O)C(C)(C)CCC1
**A:** 10
